molecular target: T1, Met1-linked diUb (M1-Ub2) (human, UniProt P0CG47 1-76; P0CG47 1-76); assay: SPR; GST-fused RNF168 domains captured by immobilised anti-GST antibody on CM5 chip (1000-1500 RU); Ub2 species injected 60 s at 10 µL per min; HBS-P (10 mM HEPES-Na pH 7.4, 150 mM NaCl, 0.05% P20), 25 °C; steady-state fit, 1:1 model; conditions: both partners purified
T1 construct: ubiquitin, human, first (distal) moiety of the linear diUb; ubiquitin, human, second (proximal) moiety, its Met1 joined to Gly76 of the first; Expressed from a human M1-Ub2 gene as one chain; source: E. coli Rosetta (DE3), pET26b, purified (heat step, ResourceS, Superdex75)
Classify: Satisfied when Kd is strictly less than 500 µM; Not satisfied when Kd is not.

The following binders have reported results that may help.
INSERT INTO assay_data (binder, assigned_category) VALUES
  ('GST-tagged RNF168 LRM1 (Y120A)-UMI (domain or fragment, human, UniProt Q8IYW5 110-166, looked up, source: E. coli Rosetta (DE3), purified (Glutathione Sepharose)) LSKPGELRREAEEEISKVAAERRASEEEENKASEEYIQRLLAEEEEEEKRQAEKRRR', 'Satisfied'),
  ('GST-tagged RNF168 LRM1 (L116A)-UMI (domain or fragment, human, UniProt Q8IYW5 110-166, looked up, source: E. coli Rosetta (DE3), purified (Glutathione Sepharose)) LSKPGEARREYEEEISKVAAERRASEEEENKASEEYIQRLLAEEEEEEKRQAEKRRR', 'Satisfied'),
  ('GST-tagged RNF168 LRM1-UMI (residues 110-166) (domain or fragment, human, UniProt Q8IYW5 110-166, looked up, Cloned into pCold-GST; also called N-terminal part of UDM1; source: E. coli Rosetta (DE3), purified (Glutathione Sepharose)) LSKPGELRREYEEEISKVAAERRASEEEENKASEEYIQRLLAEEEEEEKRQAEKRRR', 'Satisfied'),
  ('EETEINFTQKLIDLEHLTFERHKQEEQDRLLALQLQKEVDKEQM (domain or fragment, human, UniProt Q8IYW5 419-462, looked up, RNF168, human, residues 419-462 (UDM2ΔC) with L436T; source: E. coli Rosetta (DE3), purified (Glutathione Sepharose)) [GST-tagged RNF168 UDM2ΔC (L436T)]', 'Satisfied'),
  ('GST-tagged RNF168 LRM1-UMI (L149A) (domain or fragment, human, UniProt Q8IYW5 110-166, looked up, source: E. coli Rosetta (DE3), purified (Glutathione Sepharose)) LSKPGELRREYEEEISKVAAERRASEEEENKASEEYIQRALAEEEEEEKRQAEKRRR', 'Not satisfied');

Shift focus to the following entry.
Task: Strictly below 500 µM: is that where Kd of GST-tagged RNF168 LRM1-UMI (S142A) (domain or fragment, human, UniProt Q8IYW5 110-166, looked up, source: E. coli Rosetta (DE3), purified (Glutathione Sepharose)) LSKPGELRREYEEEISKVAAERRASEEEENKAAEEYIQRLLAEEEEEEKRQAEKRRR sits?
Result: Not satisfied
